# assay_system: UniProtKB P30304
# measurement_description: Inhibition of Cdc25A (unknown origin) phosphatase activity assessed as fluorescence by BMG plate reader in the presence of 0.005% Tween-20
pIC50: −log10 of the molar value.
Think of 5 as a floor: if pIC50 stands on it or above, it is rule met; beneath it, rule not met.

Worked set:
molecule | class_label
O=C(CCC(=O)Nc1nc(-c2cc3ccccc3oc2=O)cs1)NCc1ccc2c(c1)OCO2 | rule not met
Cc1cccc(-c2nc(-c3ccc4c(c3)CCN4S(C)(=O)=O)cs2)c1 | rule not met
CCOc1ccc(-c2nc(-c3ccc4[nH]c(=O)[nH]c4c3)cs2)cc1 | rule not met
O=c1[nH]c2cc(S(=O)(=O)Nc3cccc(-c4csc(-c5ccccc5)n4)c3)ccc2o1 | rule met
COc1ccc(-c2nc(-c3cc(C)n(CC4CCCO4)c3C)cs2)cc1 (configuration not stated) | rule not met
O=C1C(=O)c2c(C(=O)c3ccccc3)coc2-c2ccccc21 | rule met

hey, is pIC50 for this one >= 5? "COc1ccc(-c2nc(-c3ccc4c(c3)CCN4S(C)(=O)=O)cs2)cc1"
rule not met

Dear colleague, could you confirm whether "O=C(Nc1nc(-c2ccc(F)cc2)cs1)c1cnccn1" has pIC50 at or above 5?
rule not met

I'd appreciate it if you could say whether "O=C(Nc1cccc(-c2csc(-c3ccccc3)n2)c1)c1cccc(=O)[nH]1" has pIC50 at least equal to 5.
rule met

====

Measured pIC50, listed per entry.
# assay_system: M-phase inducer phosphatase 1 (Homo sapiens, UniProt P30304)
# Sequence (P30304 whole entry): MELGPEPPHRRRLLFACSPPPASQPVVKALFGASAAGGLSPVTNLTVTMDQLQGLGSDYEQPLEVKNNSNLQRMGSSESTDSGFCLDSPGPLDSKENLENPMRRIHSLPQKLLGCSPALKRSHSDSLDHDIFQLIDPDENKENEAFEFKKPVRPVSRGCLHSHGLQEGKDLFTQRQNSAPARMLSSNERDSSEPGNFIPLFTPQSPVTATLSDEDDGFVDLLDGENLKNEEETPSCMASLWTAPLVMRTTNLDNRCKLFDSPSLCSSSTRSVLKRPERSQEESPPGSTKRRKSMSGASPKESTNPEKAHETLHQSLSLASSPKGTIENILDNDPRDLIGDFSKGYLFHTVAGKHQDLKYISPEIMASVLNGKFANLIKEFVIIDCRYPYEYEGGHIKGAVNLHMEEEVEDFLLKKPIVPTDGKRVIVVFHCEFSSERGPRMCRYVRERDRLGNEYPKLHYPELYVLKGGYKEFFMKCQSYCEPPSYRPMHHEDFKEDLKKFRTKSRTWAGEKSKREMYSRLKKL
# measurement_description: Inhibition of Cdc25A (unknown origin) phosphatase activity assessed as fluorescence by BMG plate reader in the presence of 0.005% Tween-20
// field semantics: pIC50 = negative decimal log of concentration (mol/L)

The following molecules have reported results that may help.
smiles_data | pIC50
O=C(CCC(=O)NC1CCCC1)Nc1nc(-c2cc3ccccc3oc2=O)cs1 | 4.91
N#Cc1ccc(-c2csc(-c3ccc(-c4csnn4)cc3)n2)cc1 | 4.91

Given the molecule "O=C(/C=C/c1ccc2c(c1)OCO2)Nc1nc(-c2ccc(F)cc2F)cs1" , what is its reported pIC50?
5.12
